Test target: Recombinant human p38α (Homo sapiens)
Construct: GST; made in house
Sequence (Q16539 whole entry): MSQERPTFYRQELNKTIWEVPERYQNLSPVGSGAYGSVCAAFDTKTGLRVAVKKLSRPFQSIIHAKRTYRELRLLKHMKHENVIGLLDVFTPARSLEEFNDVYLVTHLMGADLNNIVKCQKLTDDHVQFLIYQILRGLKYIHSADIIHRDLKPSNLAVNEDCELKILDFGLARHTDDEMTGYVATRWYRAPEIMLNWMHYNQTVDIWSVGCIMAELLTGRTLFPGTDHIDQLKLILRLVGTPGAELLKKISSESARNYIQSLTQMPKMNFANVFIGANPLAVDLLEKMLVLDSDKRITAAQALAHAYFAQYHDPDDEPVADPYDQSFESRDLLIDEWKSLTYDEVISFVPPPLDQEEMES
Experimental details: Time-resolved fluorescence resonance energy transfer (TR-FRET) kinase assay (standard or low volume)
Format: biochemical
Conditions: bound; read-out: pIC50 (converted)
Counter-ions that a name gives are not always drawn.
Endpoint label: IC50

Compound: Cc1cc(C(=O)Nc2ccc(F)cc2)ccc1-c1nc(NCCN(C)C)nc2c1CNC(=O)N2c1c(F)cccc1F [Example 107, trifluoroacetate]
Test target: Recombinant human p38α (Homo sapiens)
IC50: > 1580 nM

Compound: Cc1ccc(C(=O)Nc2ccc(C)c(-c3nc(NC4CCNCC4)nc4c3CNC(=O)N4c3c(F)cccc3F)c2)cc1F
Test target: Recombinant human p38α (Homo sapiens)
IC50: > 15800 nM

Compound: Cc1cc(C(N)=O)ccc1-c1nc(NCCN(C)C)nc2c1CNC(=O)N2c1c(F)cccc1F [Example 110, trifluoroacetate]
Test target: Recombinant human p38α (Homo sapiens)
IC50: > 1580 nM

Pending compound:
Query CCCNC(=O)c1ccc(-c2nc(NCCN(C)C)nc3c2CNC(=O)N3c2c(F)cccc2F)c(C)c1 [Example 105, trifluoroacetate] yields IC50 of > 1580 nM

* * *

# melting point listing for each entry below

Compound structure string: CCN(CC)C(=O)c1ccc(C)c(-c2nc(N3CCN(C)CC3)nc3c2CNC(=O)N3c2c(F)cccc2F)c1
melting point: 201 to 205 °C (dec.)
//
Compound structure string: Cc1ccc(C(=O)Nc2ccc(C)c(-c3nc(N(C)C)nc4c3CNC(=O)N4c3c(F)cccc3F)c2)cc1F
melting point: 257.8 to 264.3 °C
//
Compound structure string: CCN(CC)CCCNc1nc(-c2cc(C(=O)NC)ccc2C)c2c(n1)N(c1c(F)cccc1F)C(=O)NC2
melting point: 133 to 136 °C
//
Compound structure string: Cc1ccc(C(=O)NCc2ccccc2)cc1-c1nc(NC2CC(C)(C)NC(C)(C)C2)nc2c1CNC(=O)N2c1c(F)cccc1F
melting point: 160 to 165 °C (dec.)
//
Compound structure string: Cc1ccc(C(=O)N(C)C)cc1-c1nc(N(C)CCCN(C)C)nc2c1CNC(=O)N2c1c(F)cccc1F
melting point: 114 to 118 °C

Pending compound:
Query `Cc1ccc(NC(=O)c2ccsc2)cc1-c1nc(N(C)C)nc2c1CNC(=O)N2c1c(F)cccc1F` yields melting point of 214 to 215 °C

Reference for the values: patent US20090239846A1
